- Test system: Mycobacterium tuberculosis
- measurement_protocol: Antimycobacterial activity against Mycobacterium tuberculosis H37Rv assessed as reduction in bacterial growth incubated for 7 days by resazurin dye based assay
- Format: functional
- condition_context: 168 h, time 7 day
Let's look at some compounds and their measured MIC.
Enter your answer as a number in µg/mL; do not include the unit.

Known results for compounds:
- compound: "Clc1ccc2c(CNCC3CCCCC3)cn(C3CCCCCCC3)c2c1"
  unit_descriptor: "µg/mL"
  MIC: 1.56
- compound: "CC(C)=CCC/C=C(\\C)Cn1cc(CNC2CCCCCC2)c2ccc(Cl)cc21"
  unit_descriptor: "µg/mL"
  MIC: 2.75
- compound: "Cn1cc(CNCC2CCCCC2)c2ccc(Cl)cc21"
  unit_descriptor: "µg/mL"
  MIC: 19.1
- compound: "Cn1cc(CNC2CCCCCCC2)c2ccc(Cl)cc21"
  unit_descriptor: "µg/mL"
  MIC: 23.2
- compound: "Clc1ccc2c(CNC3C4CC5CC(C4)CC3C5)c[nH]c2c1 (stereo not drawn)"
  unit_descriptor: "µg/mL"
  MIC: 6.07
- compound: "Clc1ccc2c(CNCc3ccccc3)cn(C3CCCCCCC3)c2c1"
  unit_descriptor: "µg/mL"
  MIC: 19.7
- compound: "Cc1cc(CNC2CCCCC2)c(C)n1-c1ccc(Cl)cc1"
  unit_descriptor: "µg/mL"
  MIC: 0.2
- compound: "CC(C)n1cc(CNC2CCCCCCC2)c2ccc(Cl)cc21"
  unit_descriptor: "µg/mL"
  MIC: 14
- compound: "CC(C)n1cc(CNCC2CCCCC2)c2ccc(Cl)cc21"
  unit_descriptor: "µg/mL"
  MIC: 6.09

Here is another compound to look at.
Checklist item: MIC tested on Mycobacterium tuberculosis, entry Clc1ccc2c(CNC3CCCCCC3)c[nH]c2c1 , value?
17.1

----------
- Tested on: Mycobacterium tuberculosis
- measurement_protocol: Antimycobacterial activity against Mycobacterium tuberculosis H37Rv assessed as reduction in bacterial growth incubated for 7 days by resazurin dye based assay
- Format: functional
- condition_context: 168 h, time 7 day
Each entry below carries its recorded MIC.
Your answer is read as µg/mL, so omit the unit and give the number.

Observe how each entry below is paired with its result.
- molecule: "Cn1cc(CNC2C3CC4CC(C3)CC2C4)c2ccc(Cl)cc21 (stereo not drawn)"
  unit_descriptor: "µg/mL"
  data_value: 10.9
- molecule: "Cc1ccc2[nH]cc(CNC3CCCCCC3)c2c1"
  unit_descriptor: "µg/mL"
  data_value: 24.7

Given Cc1cc(CNCC2CCCCC2)c(C)n1-c1ccc(Cl)cc1 , state its recorded MIC.
0.3

What do we get for Clc1ccc2c(CNCc3ccccc3)c[nH]c2c1 ?
22.8

Same read-out for CC(C)n1cc(CNC2CCCCC2)c2ccc(Cl)cc21 ?
23.9

Clc1ccc2c(CNCC3CCCCC3)c[nH]c2c1 , same question.
24.2

Then what about the molecule CC(C)n1cc(CNC2CCCCCC2)c2ccc(Cl)cc21 ?
16.3

How about this molecule: Clc1ccc2[nH]cc(CNC3CCCCC3)c2c1
16.3

----------
Recorded MIC by entry
- Test system: Mycobacterium tuberculosis
- measurement_protocol: Antimycobacterial activity against Mycobacterium tuberculosis H37Rv assessed as reduction in bacterial growth incubated for 7 days by resazurin dye based assay
- Type: functional
- condition_context: 168 h, time 7 day

- given_smiles: "Cc1ccc2[nH]cc(CNC3CCCCC3)c2c1"
  MIC: "> 25 µg/mL"
- given_smiles: "Cn1cc(CNCc2ccccc2)c2ccc(Cl)cc21"
  MIC: "> 25 µg/mL"

Here is another compound to look at.
Item under review: Clc1ccc2c(CNC3CCCCC3)c[nH]c2c1 . Reported MIC?
> 25 µg/mL

Origin of values: ChEMBL document CHEMBL5038652
